- experimental-system: Histone deacetylase 1 (Homo sapiens, UniProt Q13547)
- Sequence (Q13547 whole entry): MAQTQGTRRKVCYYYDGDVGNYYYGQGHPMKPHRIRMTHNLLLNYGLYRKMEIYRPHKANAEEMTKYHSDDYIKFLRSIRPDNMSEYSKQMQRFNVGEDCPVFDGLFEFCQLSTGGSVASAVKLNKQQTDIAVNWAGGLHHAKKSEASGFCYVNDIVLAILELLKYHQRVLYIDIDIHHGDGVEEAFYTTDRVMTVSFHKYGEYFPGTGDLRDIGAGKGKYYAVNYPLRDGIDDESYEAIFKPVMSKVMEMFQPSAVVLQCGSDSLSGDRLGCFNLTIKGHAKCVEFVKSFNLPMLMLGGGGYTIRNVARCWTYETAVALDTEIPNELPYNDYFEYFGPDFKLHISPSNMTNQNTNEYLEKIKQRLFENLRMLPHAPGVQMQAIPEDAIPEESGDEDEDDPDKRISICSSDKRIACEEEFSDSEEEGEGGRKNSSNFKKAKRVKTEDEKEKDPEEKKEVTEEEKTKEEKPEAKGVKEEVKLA
- measurement-notes: Inhibition of recombinant human HDAC1 using fluorogenic substrate by fluorescence microplate reader assay
pIC50: −log10 of the molar value.
endpoint-name: pIC50

CC(C)(CNC(=O)c1cccc(-c2noc(C(F)(F)F)n2)c1)c1coc(-c2ccccc2)n1 ... < 5.30
C[C@H](CN(C)Cc1ccccc1)NC(=O)c1ccc(-c2noc(C(F)(F)F)n2)cc1 ... < 6.22

###

# Lookup of reported IC50 keyed by entry
- experimental-system: Histone deacetylase 11 (Homo sapiens, UniProt Q96DB2)
- Sequence (Q96DB2 whole entry): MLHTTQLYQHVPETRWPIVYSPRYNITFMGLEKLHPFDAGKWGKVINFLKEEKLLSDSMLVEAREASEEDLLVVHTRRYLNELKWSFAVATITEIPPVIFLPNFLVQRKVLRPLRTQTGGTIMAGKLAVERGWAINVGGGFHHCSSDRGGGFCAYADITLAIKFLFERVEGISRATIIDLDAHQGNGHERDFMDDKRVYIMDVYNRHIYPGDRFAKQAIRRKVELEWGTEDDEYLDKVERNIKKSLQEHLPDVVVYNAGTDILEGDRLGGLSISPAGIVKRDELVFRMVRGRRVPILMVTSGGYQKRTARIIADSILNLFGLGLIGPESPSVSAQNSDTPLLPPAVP
- measurement-notes: Inhibition of recombinant human HDAC11 using fluorogenic substrate by fluorescence microplate reader assay
endpoint-name: IC50

C[C@H](CN(C)Cc1ccccc1)NC(=O)c1ccc(-c2noc(C(F)(F)F)n2)cc1 ... > 600 nM
CC(C)(CNC(=O)c1cccc(-c2noc(C(F)(F)F)n2)c1)c1coc(-c2ccccc2)n1 ... > 5000 nM

Every entry's value here was drawn from ChEMBL document CHEMBL5154665.
